# Target of assay: ERα (Homo sapiens)
# Sequence (P03372 whole entry): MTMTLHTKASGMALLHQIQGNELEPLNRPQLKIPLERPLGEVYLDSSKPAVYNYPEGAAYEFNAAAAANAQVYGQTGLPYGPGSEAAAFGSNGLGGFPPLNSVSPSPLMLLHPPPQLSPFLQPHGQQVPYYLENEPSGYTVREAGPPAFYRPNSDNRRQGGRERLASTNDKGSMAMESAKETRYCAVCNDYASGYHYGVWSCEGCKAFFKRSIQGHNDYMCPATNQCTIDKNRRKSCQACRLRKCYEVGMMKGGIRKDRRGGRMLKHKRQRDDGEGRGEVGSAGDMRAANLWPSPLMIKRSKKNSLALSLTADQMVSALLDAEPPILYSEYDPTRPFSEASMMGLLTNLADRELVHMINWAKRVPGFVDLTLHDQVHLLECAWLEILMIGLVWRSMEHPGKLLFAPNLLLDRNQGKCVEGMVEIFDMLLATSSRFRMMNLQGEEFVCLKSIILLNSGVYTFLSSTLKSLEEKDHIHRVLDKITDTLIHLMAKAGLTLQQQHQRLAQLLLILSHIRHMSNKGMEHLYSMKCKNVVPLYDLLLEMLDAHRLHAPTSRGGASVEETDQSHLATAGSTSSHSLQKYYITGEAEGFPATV
# Test summary: Alkaline phosphatase
# Assay type: cell-based
pIC50: −log10 of the molar value.
Parameter measured: pIC50

CCCN1CC(Cc2ccc([C@@H]3c4[nH]c5ccccc5c4C[C@@H](C)N3CC(C)(C)F)cc2F)C1
8.30
CCCN1CC(Oc2ccc([C@@H]3c4[nH]c5ccccc5c4C[C@@H](C)N3CC(C)(C)F)cc2F)C1
8.00
CCCN1CC(Oc2ccc([C@@H]3c4[nH]c5ccccc5c4C[C@@H](C)N3CCC(C)(C)F)cc2)C1
7.30
C[C@@H]1Cc2c([nH]c3ccccc23)[C@@H](c2ccc(OCCN3CC(CF)C3)cc2)N1CC(C)(C)F
8.90
CCCN1CC(Oc2ccc([C@@H]3c4[nH]c5ccccc5c4C[C@@H](C)N3CC(C)(C)F)cc2)C1
8.50
CCCN1CC(Cc2ccc([C@@H]3c4[nH]c5ccccc5c4C[C@@H](C)N3CC(C)(C)F)cc2)C1
8.50
CCCN1CC(Oc2ccc([C@@H]3c4[nH]c5ccccc5c4C[C@@H](C)N3CCC(C)(C)O)cc2)C1
6.40
CCCN1CC(Oc2ccc([C@@H]3c4[nH]c5ccccc5c4C[C@@H](C)N3C[C@@H](C)CO)cc2)C1
8.50
C[C@@H]1Cc2c([nH]c3ccccc23)[C@@H](c2ccc(OCCN3CC(CF)C3)c(F)c2)N1CC(C)(C)F
8.70

a. CCCN1CC(Cc2cc(F)c([C@@H]3c4[nH]c5ccccc5c4C[C@@H](C)N3CC(C)(C)F)c(F)c2)C1
b. C[C@@H]1Cc2c([nH]c3ccccc23)[C@@H](c2ccc(CCCN3CC(CF)C3)c(F)c2)N1CC(C)(C)F
Select the item with the higher value of pIC50 from the options a and b listed. Response format: the label of the selected entry.
a
(a: 8.80, b: 8.10)

Recorded values, source paper PMC12163657.
